Test: MTT assay, SVG
Format: cell-based, human
Conditions: human, SVG astrocyte cells
MEASURED QUANTITY: viability at 24 h (%)
One number for each entry, in %.

// query viability at 24 h value for entry O=C(/C=C/C=C/c1ccc2c(c1)OCO2)N(CCCO[N+](=O)[O-])c1ccc(CO)cc1
89.1

----------
Test: MTT assay, CHME3
Format: cell-based, human
Conditions: human, CHME3 microglia cells
MEASURED QUANTITY: viability at 24 h (%)
Numbers only, in %.

// query viability at 24 h value for entry O=C(/C=C/C=C/c1ccc2c(c1)OCO2)N(CCCO[N+](=O)[O-])c1ccc(CO)cc1 [PA-3′k]
86.1

Taken from paper PMC6830765.
